# credit: patent US12421229B2

Target: hERG K+ channel (Homo sapiens, UniProt Q12809)
Construct: expressed in transfected cells; host or cells: CHO (Chinese hamster ovary), CHOhERG
Sequence (Q12809 whole entry): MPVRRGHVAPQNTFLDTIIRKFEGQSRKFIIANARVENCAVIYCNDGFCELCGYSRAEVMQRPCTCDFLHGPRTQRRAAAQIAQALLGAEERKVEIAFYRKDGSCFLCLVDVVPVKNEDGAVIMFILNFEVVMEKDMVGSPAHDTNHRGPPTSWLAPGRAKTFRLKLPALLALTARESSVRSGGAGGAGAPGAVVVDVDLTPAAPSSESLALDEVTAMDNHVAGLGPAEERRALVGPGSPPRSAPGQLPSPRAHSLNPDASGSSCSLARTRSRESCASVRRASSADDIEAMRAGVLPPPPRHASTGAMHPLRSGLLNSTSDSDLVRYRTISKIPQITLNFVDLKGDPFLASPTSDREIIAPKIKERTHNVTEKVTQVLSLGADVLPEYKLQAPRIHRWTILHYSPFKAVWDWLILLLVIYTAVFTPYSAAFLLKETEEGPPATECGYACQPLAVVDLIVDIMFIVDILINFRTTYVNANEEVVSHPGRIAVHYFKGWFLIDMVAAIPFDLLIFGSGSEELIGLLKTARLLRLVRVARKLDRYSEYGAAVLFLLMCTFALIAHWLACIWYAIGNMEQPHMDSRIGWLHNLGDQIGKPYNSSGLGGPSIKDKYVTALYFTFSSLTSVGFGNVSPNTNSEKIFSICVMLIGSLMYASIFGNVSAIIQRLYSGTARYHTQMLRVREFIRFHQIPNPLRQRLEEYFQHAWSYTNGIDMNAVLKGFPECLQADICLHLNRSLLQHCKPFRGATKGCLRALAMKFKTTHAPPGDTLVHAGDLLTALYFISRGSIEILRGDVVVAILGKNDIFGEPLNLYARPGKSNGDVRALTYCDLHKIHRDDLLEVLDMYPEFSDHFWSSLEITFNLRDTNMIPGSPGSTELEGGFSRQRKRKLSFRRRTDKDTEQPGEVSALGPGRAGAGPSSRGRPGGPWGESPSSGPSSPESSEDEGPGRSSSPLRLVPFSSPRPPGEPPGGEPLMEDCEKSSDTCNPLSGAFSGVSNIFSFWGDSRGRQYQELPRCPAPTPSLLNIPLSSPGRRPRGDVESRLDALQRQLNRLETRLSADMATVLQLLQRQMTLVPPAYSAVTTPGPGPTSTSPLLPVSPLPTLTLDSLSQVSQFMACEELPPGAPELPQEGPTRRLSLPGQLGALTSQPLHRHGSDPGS
Experiment: hERG channel inhibition assay (patch-clamp, CHOhERG cells)
Assay type: cell-based
Details: safety ratio
Listing of recorded hERG IC20/TLR8 IC50 by entry.

Asked: Please give the documented hERG IC20/TLR8 IC50 of `CO[C@H]1CN(c2ccc([C@@H]3CCN4[C@@H](C3)CN(c3ccc(C#N)c5ncccc35)C[C@H]4C)cn2)C[C@@H]1N`
Given back: 195.7

Asked: Using known records, supply hERG IC20/TLR8 IC50 for `C[C@@H]1CN(c2ccc(C#N)c3ncccc23)C[C@@H]2C[C@H](Nc3ccc(C[C@@H]4CNCCO4)cc3)CCN21`
Given back: >185.2

Asked: Assign hERG IC20/TLR8 IC50 to the following record: `C[C@@H]1CN(c2ccc(C#N)c3ncccc23)C[C@@H]2C[C@H](N3CC(c4ccc(N5CCNCC5)cc4)C3)CCN21`
Given back: >277.8

Asked: Look up and report measured hERG IC20/TLR8 IC50 for this entry: `[2H]c1ccc2c(N3C[C@@H]4C[C@H](Nc5ccc(C[C@H]6CNCCO6)cc5)CCN4[C@H](C)C3)ccc(C#N)c2n1`
Given back: >250

Asked: Tell me measured hERG IC20/TLR8 IC50 for `C[C@@H]1CN(c2ccc(C#N)c3ncccc23)C[C@@H]2C[C@H](Nc3ccc([C@H]4CNCCO4)cc3)CCN21` please.
Given back: >200

Asked: Look up and report measured hERG IC20/TLR8 IC50 for this entry: `C[C@@H]1CN(c2ccc(C#N)c3ncccc23)C[C@@H]2C[C@@H](Oc3ccc(N4CCNCC4)cn3)CCN21`
Given back: >666.6

====

Molecular target: human TLR7 (Homo sapiens, UniProt Q9NYK1)
Sequence (Q9NYK1 27-1049): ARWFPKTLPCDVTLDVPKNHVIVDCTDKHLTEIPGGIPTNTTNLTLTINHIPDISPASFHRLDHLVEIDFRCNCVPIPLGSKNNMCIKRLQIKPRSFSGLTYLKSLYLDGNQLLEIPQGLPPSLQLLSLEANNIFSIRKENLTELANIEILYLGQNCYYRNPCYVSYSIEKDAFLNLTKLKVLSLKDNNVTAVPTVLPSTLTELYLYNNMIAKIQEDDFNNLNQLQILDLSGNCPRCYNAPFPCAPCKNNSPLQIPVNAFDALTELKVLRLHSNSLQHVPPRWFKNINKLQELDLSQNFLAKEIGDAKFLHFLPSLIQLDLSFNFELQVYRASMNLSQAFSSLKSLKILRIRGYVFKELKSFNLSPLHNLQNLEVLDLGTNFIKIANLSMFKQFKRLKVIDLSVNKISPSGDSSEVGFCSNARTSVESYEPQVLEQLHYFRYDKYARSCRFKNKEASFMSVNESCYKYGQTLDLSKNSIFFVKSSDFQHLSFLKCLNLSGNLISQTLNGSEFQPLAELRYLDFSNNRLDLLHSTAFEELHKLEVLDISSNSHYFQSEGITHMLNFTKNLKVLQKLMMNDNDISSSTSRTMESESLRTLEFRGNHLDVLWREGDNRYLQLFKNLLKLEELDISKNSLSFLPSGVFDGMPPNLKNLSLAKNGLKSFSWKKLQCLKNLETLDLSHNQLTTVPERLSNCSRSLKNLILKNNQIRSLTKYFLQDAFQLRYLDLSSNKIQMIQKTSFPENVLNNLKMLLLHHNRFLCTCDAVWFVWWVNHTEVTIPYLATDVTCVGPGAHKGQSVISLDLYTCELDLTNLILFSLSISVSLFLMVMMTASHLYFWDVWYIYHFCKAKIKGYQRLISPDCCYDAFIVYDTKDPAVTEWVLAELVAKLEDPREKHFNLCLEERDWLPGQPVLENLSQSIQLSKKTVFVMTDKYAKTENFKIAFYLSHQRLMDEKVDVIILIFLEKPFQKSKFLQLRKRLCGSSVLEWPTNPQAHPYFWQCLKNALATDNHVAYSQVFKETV
Experiment: HEK293-Blue-hTLR-7 cells assay
Details: HEK293-Blue-hTLR7 cells, R848 stimulation, 20 hrs, SEAP reporter; read-out: HEK/hTLR7 IC50
PROPERTY: pIC50
Reminder that pIC50 means the negative base-10 logarithm of the concentration expressed in mol/L.

C[C@@H]1CN(c2ccc(C#N)c3ncccc23)C[C@@H]2C[C@H](c3ccc(N4CC(N)C4)nc3)CCN21; 7.49
[2H]c1ccc2c(N3C[C@@H]4C[C@@H](N5CC(c6ccc(N7C[C@@H](N)[C@H](OC)C7)cc6)C5)CCN4[C@H](C)C3)ccc(C#N)c2n1; 7.52

Query compound follows.
Asked: Give the reported pIC50 for this compound. `C[C@@H]1CN(c2ccc(C#N)c3ncccc23)C[C@@H]2C[C@@H](NCc3ccc(N4CCNCC4)cc3)CCN21`
Given back: 7.46

====

Biological target: CYP2D6 (Homo sapiens)
Construct: tissue BD-Gentest 452117; host or cells: human liver microsomes
Sequence (P10635 whole entry): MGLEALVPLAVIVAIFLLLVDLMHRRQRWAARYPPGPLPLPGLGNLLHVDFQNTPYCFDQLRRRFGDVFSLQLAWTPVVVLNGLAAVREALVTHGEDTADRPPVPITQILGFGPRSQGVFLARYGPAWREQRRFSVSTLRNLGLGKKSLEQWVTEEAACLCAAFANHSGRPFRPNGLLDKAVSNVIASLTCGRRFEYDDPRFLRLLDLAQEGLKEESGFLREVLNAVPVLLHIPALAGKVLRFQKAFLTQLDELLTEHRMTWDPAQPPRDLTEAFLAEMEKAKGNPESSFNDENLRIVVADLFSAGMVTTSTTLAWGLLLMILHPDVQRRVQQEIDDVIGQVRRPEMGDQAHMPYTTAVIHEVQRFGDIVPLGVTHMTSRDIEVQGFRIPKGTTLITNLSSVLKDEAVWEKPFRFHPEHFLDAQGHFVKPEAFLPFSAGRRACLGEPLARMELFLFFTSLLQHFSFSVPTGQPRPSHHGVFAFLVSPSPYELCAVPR
Assay: CYP inhibition assay in human liver microsome, CYP2D6
Format: in vitro ADME
Conditions: percentage inhibition, substrate Dextromethorphan 5 μM
Some compounds, each annotated with its measured CYP (%) 2D6.
Write down the numeric answer in % and omit the unit.

Asked: Dear colleague, please send me the reported CYP (%) 2D6 for `C[C@@H]1CN(c2ccc(C#N)c3ncccc23)C[C@@H]2C[C@@H](Oc3ccc(N4CCNCC4)cn3)CCN21` when you can.
Given back: −24.5

Asked: Fill in CYP (%) 2D6 for record `[2H]c1ccc2c(N3C[C@@H]4C[C@H](Nc5ccc(C[C@H]6CNCCO6)cc5)CCN4[C@H](C)C3)ccc(C#N)c2n1`
Given back: 2.5

Asked: Hello, please tell me recorded CYP (%) 2D6 for this one: `C[C@@H]1CN(c2ccc(C#N)c3ncccc23)C[C@@H]2C[C@H](Nc3ccc(C[C@@H]4CNCCO4)cc3)CCN21`
Given back: 9

Asked: Look up CYP (%) 2D6 of `C[C@@H]1CN(c2ccc(C#N)c3ncccc23)C[C@@H]2C[C@H](c3ccc(N4C[C@@H](N)[C@@H](F)C4)nc3)CCN21` and report it.
Given back: −6

Asked: Report measured CYP (%) 2D6; entry is `[2H]c1ccc2c(N3C[C@@H]4C[C@H](N5CCN(c6ccncc6)CC5)CCN4[C@H](C)C3)ccc(C#N)c2n1`
Given back: 14.5

Asked: Supply reported CYP (%) 2D6 belonging to this compound: `CO[C@@H]1CN(c2ccc([C@@H]3CCN4[C@@H](C3)CN(c3ccc(C#N)c5ncccc35)C[C@H]4C)cn2)C[C@H]1N`
Given back: −0.5

Asked: Find the measured CYP (%) 2D6 of `C[C@@H]1CN(c2ccc(C#N)c3ncccc23)C[C@@H]2C[C@H](N3CC(c4ccc(N5CCNCC5)cc4)C3)CCN21` and report it.
Given back: −2

Asked: Complete the entry with CYP (%) 2D6 for `CO[C@H]1CN(c2ccc([C@@H]3CCN4[C@@H](C3)CN(c3ccc(C#N)c5ncccc35)C[C@H]4C)cn2)C[C@@H]1N`
Given back: −12.5

Asked: Supply recorded CYP (%) 2D6 for C[C@@H]1CN(c2ccc(C#N)c3ncccc23)C[C@@H]2C[C@H](c3ccc(N4CCNCC4)nc3)CCN21 (stereo in doubt) here.
Given back: −5.5

Asked: Report CYP (%) 2D6 for `C[C@@H]1CN(c2ccc(C#N)c3ncccc23)C[C@@H]2C[C@H](c3ccc([C@@H]4CNCCO4)cc3)CCN21`
Given back: 8

Asked: Provide only the value of recorded CYP (%) 2D6 for `CO[C@H]1CN(c2ccc([C@@H]3CCN4[C@@H](C3)CN(c3ccc(C#N)c5ncccc35)C[C@H]4C)cn2)C[C@H]1N`
Given back: 0

====

Biological target: hERG K+ channel (Homo sapiens, UniProt Q12809)
Construct: expressed in transfected cells; host or cells: CHO (Chinese hamster ovary), CHOhERG
Experiment: hERG channel inhibition assay (patch-clamp, CHOhERG cells)
Assay type: cell-based
Settings: safety ratio
Let's look at some compounds and their measured hERG IC20/TLR7 IC50.

Check out these entries, answers already filled in.
CO[C@H]1CN(c2ccc([C@@H]3CCN4[C@@H](C3)CN(c3ccc(C#N)c5ncccc35)C[C@H]4C)cn2)C[C@@H]1N; 224.4
C[C@@H]1CN(c2ccc(C#N)c3ncccc23)C[C@@H]2C[C@H](Nc3ccc([C@H]4CNCCO4)cc3)CCN21; >769.2
C[C@@H]1CN(c2ccc(C#N)c3ncccc23)C[C@@H]2C[C@H](N3CC(c4ccc(N5CCNCC5)cc4)C3)CCN21; >370.4

Asked: With hERG K+ channel (Homo sapiens, UniProt Q12809) as the test system, provide measured hERG IC20/TLR7 IC50 for this compound: `C[C@@H]1CN(c2ccc(C#N)c3ncccc23)C[C@@H]2C[C@@H](Oc3ccc(N4CCNCC4)cn3)CCN21`
Given back: >217.4

Asked: Write down measured hERG IC20/TLR7 IC50 (hERG K+ channel (Homo sapiens, UniProt Q12809)) for this compound. `[2H]c1ccc2c(N3C[C@@H]4C[C@H](Nc5ccc(C[C@H]6CNCCO6)cc5)CCN4[C@H](C)C3)ccc(C#N)c2n1`
Given back: >212.7

Asked: Lab note: record hERG IC20/TLR7 IC50 of `C[C@@H]1CN(c2ccc(C#N)c3ncccc23)C[C@@H]2C[C@H](Nc3ccc(C[C@@H]4CNCCO4)cc3)CCN21` tested on hERG K+ channel (Homo sapiens, UniProt Q12809).
Given back: >500
